Record: Ki reported on D(3) dopamine receptor (Homo sapiens, UniProt P35462).
Sequence (P35462 whole entry): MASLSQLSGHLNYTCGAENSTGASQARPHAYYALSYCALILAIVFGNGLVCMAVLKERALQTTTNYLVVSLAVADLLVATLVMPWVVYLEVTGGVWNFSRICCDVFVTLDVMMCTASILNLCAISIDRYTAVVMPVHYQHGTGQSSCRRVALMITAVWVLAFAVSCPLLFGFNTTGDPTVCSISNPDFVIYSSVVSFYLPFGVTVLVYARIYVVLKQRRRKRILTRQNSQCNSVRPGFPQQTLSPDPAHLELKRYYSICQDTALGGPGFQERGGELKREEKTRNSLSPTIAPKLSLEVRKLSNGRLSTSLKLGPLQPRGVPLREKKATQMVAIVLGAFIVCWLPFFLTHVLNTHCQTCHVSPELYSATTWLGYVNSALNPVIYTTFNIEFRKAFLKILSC
Give the value; after it, write the unit.

Look over these answered cases.
compound	Ki
Fc1ccc(SCCCN2CCN(c3ncccn3)CC2)cc1	68 nM
Fc1ccc(CCCCN2CCN(c3ccc(Cl)cc3)CC2)cc1	261 nM
Fc1ccc(SCCCN2CCC(c3ccc(Cl)cc3)CC2)cc1	130 nM
Fc1ccc(SCCCN2CCN(c3ccc(C(F)(F)F)cc3)CC2)cc1	544 nM
Fc1ccc(OCCCN2CCN(c3ccc(Cl)cc3)CC2)cc1	885 nM

Request the reported Ki associated with [O-][S+](CCCN1CCC(c2ccc(Cl)cc2)CC1)c1ccc(F)cc1 (stereo not drawn)
243 nM

Reported Ki for Fc1ccc(SCCCN2CCN(c3ccc(Cl)cc3)CC2)cc1 : what is it?
422 nM

Given Fc1ccc(OCCCN2CCN(c3ccccc3)CC2)cc1 , state its recorded Ki.
207 nM

Endpoint output: Ki of c1ccc(OCCCN2CCN(c3ccccc3)CC2)cc1 . Value?
79.3 nM

# input compound: Clc1ccc(N2CCN(CCCOc3ccccc3)CC2)cc1 ; wanted: its Ki
726 nM

May I ask what Ki has been recorded for Fc1ccc(OCCCN2CCN(c3ncccn3)CC2)cc1 ?
778 nM

Look up Ki for this compound: OC1(c2ccc(Cl)cc2)CCN(CCCOc2ccc(F)cc2)CC1
182 nM

Would you mind telling me what Ki value was observed for Fc1ccc(OCCCN2CCC(c3ccc(Cl)cc3)CC2)cc1 ?
696 nM

---

study.target: 5-hydroxytryptamine receptor 1A (Homo sapiens)
Sequence (P08908 whole entry): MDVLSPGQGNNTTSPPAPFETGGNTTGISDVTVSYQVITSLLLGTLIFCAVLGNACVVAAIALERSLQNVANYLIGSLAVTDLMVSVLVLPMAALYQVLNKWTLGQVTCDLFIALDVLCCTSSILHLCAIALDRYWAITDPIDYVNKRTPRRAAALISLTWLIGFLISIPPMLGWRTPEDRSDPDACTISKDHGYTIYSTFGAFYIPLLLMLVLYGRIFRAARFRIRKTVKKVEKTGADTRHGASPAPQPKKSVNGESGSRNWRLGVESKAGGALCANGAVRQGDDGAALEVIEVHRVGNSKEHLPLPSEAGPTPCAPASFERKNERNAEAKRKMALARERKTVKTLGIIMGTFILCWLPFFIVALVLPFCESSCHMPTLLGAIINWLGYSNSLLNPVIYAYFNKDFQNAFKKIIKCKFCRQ
parameter: log10 of Ki (log10 of the value in nM)
Short version: log10 scale, Ki, nM.

Dear colleague, I am looking for the recorded log10 of Ki of the following compound: Fc1ccc(OCCCN2CCN(c3ccc(Cl)cc3)CC2)cc1
1.90

---

study.target: D(4) dopamine receptor (Rattus norvegicus, UniProt P30729)
Sequence (P30729 whole entry): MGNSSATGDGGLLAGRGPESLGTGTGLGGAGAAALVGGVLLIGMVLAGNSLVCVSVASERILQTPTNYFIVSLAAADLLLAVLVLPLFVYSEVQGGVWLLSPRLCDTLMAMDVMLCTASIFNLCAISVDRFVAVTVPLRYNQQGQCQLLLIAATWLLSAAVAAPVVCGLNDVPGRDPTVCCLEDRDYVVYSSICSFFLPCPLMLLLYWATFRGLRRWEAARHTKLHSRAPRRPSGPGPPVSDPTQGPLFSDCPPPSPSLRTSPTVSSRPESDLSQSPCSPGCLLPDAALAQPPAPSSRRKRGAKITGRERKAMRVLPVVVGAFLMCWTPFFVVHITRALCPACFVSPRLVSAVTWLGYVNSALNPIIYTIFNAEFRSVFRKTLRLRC
pKi: −log10 of the molar value.
Decide using pKi: a value greater than or equal to 8 is 1.0, a smaller one is 0.0.

Study these solved cases before continuing.
molecule	answer.label
Fc1ccc(SCCCN2CCC(c3ccc(Cl)cc3)CC2)cc1	0.0
Fc1ccc(SCCCN2CCN(c3ccc(C(F)(F)F)cc3)CC2)cc1	0.0
Fc1ccc(OCCCN2CCN(c3ncccn3)CC2)cc1	1.0
Clc1ccc(N2CCN(CCCOc3ccccc3)CC2)cc1	1.0

Hi, just wondering whether [O-][S+](CCCN1CCC(c2ccc(Cl)cc2)CC1)c1ccc(F)cc1 (stereo unspecified) shows pKi of 8 or higher.
0.0

Is pKi for c1ccc(OCCCN2CCN(c3ccccc3)CC2)cc1 at or above 8?
1.0
